Source listed as patent US20230265116A1.

Test system: EGFR Del19/T790M/C797S (BaF3-DTC cells)
Measurement protocol: EGFR degradation HTRF assay, BaF3-DTC cells
Type: cell-based
Measurement conditions: 16h treatment, maximum percentage of degradation
Experimental endpoint: DTC Dmax (%)
Quick reminder: number only, in %, skip the unit.

Look over these answered cases.
{"columns": ["Compound", "Test system", "Endpoint value"],
 "data": [
  ["CCc1cc(Nc2ncc(Br)c(Nc3ccc4nccnc4c3P(C)(C)=O)n2)c(OC)cc1N1CCC(N2CCN(C3CN(c4ccc(C5CCC(=O)NC5=O)cc4)C3)CC2)CC1 (centres unmarked)", "EGFR Del19/T790M/C797S (BaF3-DTC cells)", 75.19],
  ["CCc1cc(Nc2ncc(Br)c(Nc3ccc4nccnc4c3P(C)(C)=O)n2)c(OC)cc1N1CCC(N2CCN(CCc3ccc(C4CCC(=O)NC4=O)c(F)c3)C[C@H]2COC)CC1 (some centres unmarked)", "EGFR Del19/T790M/C797S (BaF3-DTC cells)", 69.76],
  ["CCc1cc(Nc2ncc(Br)c(Nc3ccc4nc(C)ccc4c3P(C)(C)=O)n2)c(OC)cc1N1CCC(N2CCN(C(=O)CNc3cc(F)c(C4CCC(=O)NC4=O)c(F)c3)CC2)CC1 (centres unmarked)", "EGFR Del19/T790M/C797S (BaF3-DTC cells)", 94.91],
  ["COc1cc(N2CCC(N3CCN(CCC4CCN(c5cc(F)c(C6CCC(=O)NC6=O)c(F)c5)CC4)CC3)CC2)ccc1Nc1ncc(Br)c(Nc2ccc3nccnc3c2P(C)(C)=O)n1 (centres unmarked)", "EGFR Del19/T790M/C797S (BaF3-DTC cells)", 94.05]
]}

Below: the item to evaluate.
**Q:** So what does the record say about DTC Dmax (%) for CCc1cc(Nc2ncc(Br)c(Nc3ccc4nccnc4c3P(C)(C)=O)n2)c(OC)cc1N1CCC(N2CCN(CCc3ccc(C4CCC(=O)NC4=O)c(F)c3)[C@@H](CO)C2)CC1 (some centres unmarked) ?
**A:** 88.55
